# IC50 per entry
Assayed System: 5-LOX (Homo sapiens)
Sequence (P09917 whole entry): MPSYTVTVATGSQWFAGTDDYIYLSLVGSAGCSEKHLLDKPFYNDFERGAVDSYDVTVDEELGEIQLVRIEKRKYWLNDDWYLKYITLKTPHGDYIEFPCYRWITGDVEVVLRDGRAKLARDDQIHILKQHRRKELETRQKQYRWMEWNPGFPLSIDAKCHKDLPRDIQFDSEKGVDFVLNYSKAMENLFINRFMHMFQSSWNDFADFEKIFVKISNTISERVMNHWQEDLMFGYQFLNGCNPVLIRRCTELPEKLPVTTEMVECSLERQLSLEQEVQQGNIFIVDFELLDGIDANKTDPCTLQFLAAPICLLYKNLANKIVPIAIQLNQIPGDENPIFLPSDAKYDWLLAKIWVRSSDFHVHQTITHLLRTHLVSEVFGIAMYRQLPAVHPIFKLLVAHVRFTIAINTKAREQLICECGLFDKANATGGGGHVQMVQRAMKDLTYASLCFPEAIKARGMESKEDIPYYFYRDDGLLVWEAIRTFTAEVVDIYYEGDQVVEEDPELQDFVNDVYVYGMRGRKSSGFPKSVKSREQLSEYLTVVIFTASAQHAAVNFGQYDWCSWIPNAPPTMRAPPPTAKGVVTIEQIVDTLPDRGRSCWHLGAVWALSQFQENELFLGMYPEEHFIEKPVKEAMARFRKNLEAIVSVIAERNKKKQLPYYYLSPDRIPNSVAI
Measurement Description: 5-LOX product formation from intact PMNs: 5S-HETE (cellular activity of 5-LOX)
Type: cell-based
Parameters: stimulated intact polymorphonuclear neutrophils (PMNs); endogenous in cells; host or cells: human primary polymorphonuclear neutrophils (PMNs) from peripheral blood
Test Parameters: A23187-activated intact PMNs, 5S-HETE formation; read-out: IC50 on the 5-LOX activity (5S-HETE) in PMNs
Procedure: Human primary leukocytes were isolated from peripheral blood of healthy adult volunteers provided by the Institute of Transfusion Medicine at the University Hospital Greifswald as described before. […] PMNs (5 × 10^6 cells/mL) were diluted in PGC buffer and pre-incubated with the vehicle (0.1%; v/v) or compounds for 10 min at 37 °C prior to the stimulation with 2.5 µM A23187. […] Formed 5-LOX metabolites were analyzed as described previously.
Entry rule: numbers only, all in nM.

>  <Compound>
Nc1nc(-c2ccc(Cc3ccccc3)cc2)cs1 [ARM1, 4-(4-benzylphenyl) thiazol-2-amine, reference compound]

>  <Assayed System>
5-LOX (Homo sapiens)

>  <IC50 (nM)>
1700

$$$$

stdin: Kindly state the measured IC50 obtained for Nc1nc(-c2ccc(Cc3ccccc3)cc2)co1 with 5-LOX (Homo sapiens).
stdout: 2300

Recorded values, source paper PMC10145651.
